SYSTEM_NAME: cathepsin B (Homo sapiens, UniProt P07858)
METHOD: Resistance to acid proteases: cathepsin B
Type: in vitro ADME
MEASUREMENT_CONTEXT: 50 pmol, 30 min, 37° C., pH 5
Where no end group is shown, it is not given here. rhodamine = not defined here; Rhod = not defined here
OBSERVABLE: degradation by cathepsin B (HPLC)

Fill blank: measured degradation by cathepsin B (HPLC) of the substance K^RhodWYSCNVCGKAFVLSRHLNRHLRVHRRAT-NH2 (K(Rhod)WYSCNVCGKAFVLSRHLNRHLRVHRRAT-NH2; cysteine pairing not given here; reading uncertain; also: printed as KRhodWYSCNVCGKAFVLSRHLNRHLRVHRRAT-NH2) [ZF5.3R] is ____.
little or no degradation

Fill blank: measured degradation by cathepsin B (HPLC) of the substance K^RhodGRKKRRQRRRPPQY-NH2 (K(rhodamine)GRKKRRQRRRPPQY-NH2; reading uncertain; also: printed as K^RhodGRKKRRQRRRPPQY-NH2) [TatR] is ____.
little or no degradation

Fill blank: measured degradation by cathepsin B (HPLC) of the substance K^RhodRRRRRRRR-NH2 (K(Rhod)RRRRRRRR-NH2; reading uncertain; also: printed as K^RhodRRRRRRRR-NH2) [Arg8R] is ____.
little or no degradation

Data origin: patent US11155580B2
